Origin of values: ChEMBL document CHEMBL1129081

system: Mumps virus; experiment: Inhibitory concentration required to reduce virus Plaque formation (mumps); assay type: functional, organism-based; conditions: Mumps orthorubulavirus
Assign IC50 to each entry below.
The reply should be a number in µg/mL, with the unit left off.

Reported IC50 for C[C@H](O)C1=C[C@@H](n2cnc3c(N)nc(F)nc32)[C@H](O)[C@@H]1O was 7

Reported IC50 for Nc1nc(F)nc2c1ncn2[C@@H]1C=C[C@@H](O)[C@H]1O was 21

Reported IC50 for Nc1ncnc2c1ncn2[C@@H]1C=C(CO)[C@@H](O)[C@H]1O was 0.11

Reported IC50 for Nc1ncnc2c1ncn2[C@@H]1C=C[C@@H](O)[C@H]1O was 1.1

Reported IC50 for Nc1nc(F)nc2c1ncn2[C@@H]1C=C(CO)[C@@H](O)[C@H]1O was 1.2

Reported IC50 for C[C@H](O)C1=C[C@@H](n2cnc3c(N)ncnc32)[C@H](O)[C@@H]1O was 0.19
